Reported growth values for a set of compounds
# Tested on: OVCAR-3 ovarian
# TEST DESCRIPTION: NCI-60 one-dose screen, 48 h (100 = growth as untreated, 0 = no growth, -100 = all killed)
# CONDITION DESCRIPTION: 10 µM unless noted
The panel holds about 83,000 compounds, 20% with a hit somewhere; the sample as a whole holds those more often.
Field: numeric (%). Do not append units.

Example entries and their recorded answers appear below.
{"COMPOUND": "CC(C)C(=O)OCCOc1ccc(C(C)(C)C)cc1", "UNIT ABBREVIATION": "%", "VAL": 107}
{"COMPOUND": "CCCNS(=O)(=O)c1ccc(Cl)cc1", "UNIT ABBREVIATION": "%", "VAL": 109}
{"COMPOUND": "CC(=O)C1C(=O)C(=O)N(c2ccc(Cl)c(Cl)c2)C1=O (stereo unspecified)", "UNIT ABBREVIATION": "%", "VAL": 107}
{"COMPOUND": "Cc1cc(Cl)cc(Cc2cc(Cl)cc(C)c2O)c1O", "UNIT ABBREVIATION": "%", "VAL": -2.69}
{"COMPOUND": "CCOc1ccc(C(=O)NCC(C)C)cc1", "UNIT ABBREVIATION": "%", "VAL": 109}
{"COMPOUND": "C=CCNC(=S)N/C=C(/C(=O)c1ccccc1)c1ccccc1", "UNIT ABBREVIATION": "%", "VAL": 112}
{"COMPOUND": "C=CCC(O)C=C (stereo unspecified)", "UNIT ABBREVIATION": "%", "VAL": 108}
{"COMPOUND": "CSc1nc2[nH]ncc2c(=O)[nH]1", "UNIT ABBREVIATION": "%", "VAL": 97.3}

q: Return growth (reported value) for this compound: O=S(Cc1ccccc1)/C(=C/NC(=S)Nc1cc(Cl)ccc1Cl)c1ccccc1 (stereo unspecified)
a: 110

q: Return growth (reported value) for this compound: O=C(OC1CCCC1)c1ccccc1Cl
a: 112

q: Return growth (reported value) for this compound: O=C1NC(=O)/C(=C\c2ccncc2)N1
a: 94.3

q: Return growth (reported value) for this compound: CCOC(=O)CNC
a: 111

q: Return growth (reported value) for this compound: Cc1ccc(C(C)C)c(OCC(=O)O)c1
a: 113

q: Return growth (reported value) for this compound: CC(c1ccccc1)N(C)C (stereo unspecified)
a: 120

q: Return growth (reported value) for this compound: CC(=O)NC(O)C(Cl)Cl (stereo unspecified)
a: 74.5

q: Return growth (reported value) for this compound: COc1nc(Nc2cccc(C(F)(F)F)c2)nc(OC)n1
a: 103

q: Return growth (reported value) for this compound: Cc1ccc([N+](=O)[O-])c(C)n1
a: 107

q: Return growth (reported value) for this compound: c1cc(CNCCNCc2ccncc2)ccn1
a: 118

q: Return growth (reported value) for this compound: Clc1cccc(Cl)c1C1CSc2ccccc2N=C1c1ccccc1 (stereo unspecified)
a: 69.6

q: Return growth (reported value) for this compound: CCOC(=O)C(=O)CC(=O)c1ccccc1
a: 106

q: Return growth (reported value) for this compound: Cc1cc(Nc2ccc3c(c2)OCO3)c2cc3c(cc2n1)OCO3
a: -45.1

====

# Test system: NCI-H226 lung
# TEST DESCRIPTION: NCI-60 one-dose screen, 48 h
# CONDITION DESCRIPTION: 10 µM unless noted
Compounds without any hit were thinned out: in the full panel of roughly 83,000, 20% have a hit. Calls of active or inactive are those of the source. The calls were made as follows: active = growth percent below 10; inactive = the rest.
Hi! Could you answer with just one of these? yes for active, no for inactive

// known answers, use as guide
{"COMPOUND": "CSCCC(NC(=O)C(Cl)Cl)C(=O)O (configuration not stated)", "MEASURED TARGET": "NCI-H226 lung", "CAT": "no"}
{"COMPOUND": "Cc1cc(CC(=O)NCCO)n(CCO)c(=O)c1", "MEASURED TARGET": "NCI-H226 lung", "CAT": "no"}
{"COMPOUND": "Cc1cc(Nc2ccc3c(c2)OCO3)c2cc3c(cc2n1)OCO3", "MEASURED TARGET": "NCI-H226 lung", "CAT": "no"}
{"COMPOUND": "COC(=O)Cc1cc(COC(C)=O)ccc1C", "MEASURED TARGET": "NCI-H226 lung", "CAT": "no"}
{"COMPOUND": "CC(C)(N)CO[C@H]1C[C@H]2CC[C@@]1(C)C2(C)C", "MEASURED TARGET": "NCI-H226 lung", "CAT": "no"}
{"COMPOUND": "Cc1ccc2nc(N)nnc2c1", "MEASURED TARGET": "NCI-H226 lung", "CAT": "no"}
{"COMPOUND": "CCCCCCCCCCCCSC1=C(Cl)C(=O)C(OC)=C(OC)C1=O", "MEASURED TARGET": "NCI-H226 lung", "CAT": "no"}
{"COMPOUND": "O=S(=O)(O)C(C(I)I)S(=O)(=O)O", "MEASURED TARGET": "NCI-H226 lung", "CAT": "no"}
{"COMPOUND": "CS(=O)CC(=N\\O)/C(CS(C)=O)=N\\O (configuration not stated)", "MEASURED TARGET": "NCI-H226 lung", "CAT": "no"}
{"COMPOUND": "COc1ccc(C2CCCCC2=O)cc1 (configuration not stated)", "MEASURED TARGET": "NCI-H226 lung", "CAT": "no"}

Alright, here's another compound for you.
q: # outcome recorded in this test, key = S=CN1CCCCC1
a: no

====

# Tested on: SK-MEL-5 melanoma
# TEST DESCRIPTION: NCI-60 one-dose screen, 48 h
# CONDITION DESCRIPTION: 10 µM unless noted
This is part of a sample that, as a whole, favours compounds with a hit. Of some 83,000 tested, about 20% had one in any assay. Activity calls are given as the source filed them. How the source made its calls: active means growth percent below 10; inactive means the rest.
Hi! Could you answer with just one of these? 1 (yes) = active, 0 (no) = inactive

// known answers, use as guide
{"MOLECULE": "Cc1[nH]n(-c2ccccc2)c(=O)c1C=NC(=S)C(N)=S", "MEASURED TARGET": "SK-MEL-5 melanoma", "CAT": "0 (no)"}
{"MOLECULE": "O=C1C=CC(=O)C2=C1CCCC2", "MEASURED TARGET": "SK-MEL-5 melanoma", "CAT": "0 (no)"}

q: # outcome recorded in this test, key = COc1nc2ccccc2s1
a: 0 (no)

q: # outcome recorded in this test, key = C#CC(O)c1ccccc1 (stereo unspecified)
a: 0 (no)

====

# System: IGROV1 ovarian
# TEST DESCRIPTION: NCI-60 one-dose screen, 48 h (100 = growth as untreated, 0 = no growth, -100 = all killed)
# CONDITION DESCRIPTION: 10 µM unless noted
The panel holds about 83,000 compounds, 20% with a hit somewhere; the sample as a whole holds those more often.
Reported growth values for a set of molecules
Field: numeric (%). Do not append units.

Example entries and their recorded answers appear below.
{"SMILES REPR": "O=C(O)CCCCCNC(=O)OCc1ccccc1", "MEASURED TARGET": "IGROV1 ovarian", "VAL": 93.9}
{"SMILES REPR": "Cc1ccc(NC(=S)N2CCOCC2)cc1C", "MEASURED TARGET": "IGROV1 ovarian", "VAL": 103}
{"SMILES REPR": "C=CC(C)(C)n1cc(C2=C(O)C(=O)C(c3cn(C(C)(C)C=C)c4ccccc34)=C(O)C2=O)c2ccccc21", "MEASURED TARGET": "IGROV1 ovarian", "VAL": 99.5}

q: Return growth (reported value) for this molecule: CCOC(=O)c1c(C)[nH]c(C)c1C=O
a: 103

====

# Tested on: SW-620 colon
# TEST DESCRIPTION: NCI-60 one-dose screen, 48 h
# CONDITION DESCRIPTION: 10 µM unless noted
Compounds without any hit were thinned out: in the full panel of roughly 83,000, 20% have a hit. The source made the active and inactive calls. Rule for the calls: active = growth percent below 10; inactive = the rest.
Hi! Could you answer with just one of these? active, inactive

// known answers, use as guide
{"MOLECULE": "NC(CO)(CO)c1ccccc1", "CAT": "inactive"}
{"MOLECULE": "NC(=S)c1c(N)n(C2OC(CO)C(O)C2O)c2ncnc(N)c12 (stereo unspecified)", "CAT": "active"}

Alright, here's another molecule for you.
q: # outcome recorded in this test, key = O=C1NC(=O)C(c2ccccc2)O1 (stereo unspecified)
a: inactive

====

Reported growth values for a set of molecules
# Test system: HCC-2998 colon
# TEST DESCRIPTION: NCI-60 one-dose screen, 48 h (100 = growth as untreated, 0 = no growth, -100 = all killed)
# CONDITION DESCRIPTION: 10 µM unless noted
The panel holds about 83,000 compounds, 20% with a hit somewhere; the sample as a whole holds those more often.
Field: numeric (%). Do not append units.

{"MOLECULE": "CCOS(=O)(=O)c1ccc([N+](=O)[O-])cc1", "VAL": 104}

q: Return growth (reported value) for this molecule: Cc1cc(Cl)cc(Cc2cc(Cl)cc(C)c2O)c1O
a: 13.1

q: Return growth (reported value) for this molecule: CN(CCCN(C)CCC1CCCCC1)CCC1CCCCC1
a: -30.1

q: Return growth (reported value) for this molecule: C1=NCCc2ccccc21
a: 112

q: Return growth (reported value) for this molecule: COC1CC(OC(=O)c2ccc([N+](=O)[O-])cc2)C(COC(=O)c2ccc([N+](=O)[O-])cc2)O1 (stereo unspecified)
a: 112

q: Return growth (reported value) for this molecule: CC(=O)/C(C)=N\OC(=O)Nc1ccccc1
a: 94.7

q: Return growth (reported value) for this molecule: CCOC(=O)c1ccc(NC(C)=O)o1
a: 115

The reported numbers originate from PubChem BioAssay (NCI).
